Please respond with reported Activity for every item in the list.
system: Rattus norvegicus; assay: Antihyperlipidemic activity in Triton WR-1339-induced hyperlipidemic rat assessed as decrease in plasma triglyceride level at 100 mg/kg, po relative to control; format: functional; design: scale not given: the % may be the effect or the level left
# number only, unit % dropped from output

Look at this compound and give its reported Activity. CCOC(=O)COc1ccc(C(c2c[nH]c3ccccc23)c2c[nH]c3ccccc23)cc1
10

Quick check: Activity of CCOC(=O)CCCOc1ccc(C(c2cn(C)c3ccccc23)c2cn(C)c3ccccc23)cc1 ?
27

State the recorded Activity for this entry: CCOC(=O)CCCOc1ccc(C(c2c[nH]c3ccccc23)c2c[nH]c3ccccc23)cc1
12

Dear colleague, I am looking for the recorded Activity of the following compound: CCOC(=O)C(C)(C)Oc1ccc(C(c2cn(C)c3ccccc23)c2cn(C)c3ccccc23)cc1
5

So what does the record say about Activity for CCOC(=O)COc1ccc(C(c2cn(CC)c3ccccc23)c2cn(CC)c3ccccc23)cc1 ?
10
